target: Glutamate NMDA receptor; experiment: Inhibition of [3H]glycine binding to glycine site of N-methyl-D-aspartate glutamate receptor in rat cortical membranes; type: cell membranes, Membrane
pIC50: −log10 of the molar value.
Give fulfilled when the value for pIC50 is at least 6. Give not fulfilled when it is less.

// query Textbook exercise: given the entry Cn1c(C(=O)O)cc(=O)c2c(Cl)cc(Cl)cc21 , state whether its pIC50 is greater than or equal to 6.
// result not fulfilled

// query Textbook exercise: given the entry O=C(O)c1cc(O)c2c(Br)cc(Br)cc2n1 , state whether its pIC50 is greater than or equal to 6.
// result fulfilled

// query Textbook exercise: given the entry Cc1cc2[nH]c(=O)c(=O)[nH]c2cc1C , state whether its pIC50 is greater than or equal to 6.
// result not fulfilled

// query Textbook exercise: given the entry Oc1nc2cc(Cl)cc(Cl)c2nc1O , state whether its pIC50 is greater than or equal to 6.
// result not fulfilled

// query Textbook exercise: given the entry O=C(O)c1cc(O)c2cc(Cl)ccc2n1 , state whether its pIC50 is greater than or equal to 6.
// result not fulfilled

// query Textbook exercise: given the entry O=C(O)c1cc(O)c2c(I)cc(Cl)cc2n1 , state whether its pIC50 is greater than or equal to 6.
// result fulfilled

// query Textbook exercise: given the entry Oc1nc2cccc(Cl)c2nc1O , state whether its pIC50 is greater than or equal to 6.
// result not fulfilled

// query Textbook exercise: given the entry CC(C)c1ccc2c(O)cc(C(=O)O)nc2c1 , state whether its pIC50 is greater than or equal to 6.
// result not fulfilled

// query Textbook exercise: given the entry Cc1cccc2nc(C(=O)O)cc(O)c12 , state whether its pIC50 is greater than or equal to 6.
// result not fulfilled

// query Textbook exercise: given the entry COc1nc2cc(C)c(C)cc2nc1OC , state whether its pIC50 is greater than or equal to 6.
// result not fulfilled

// query Textbook exercise: given the entry Cc1cc2c(cc1C)n(C)c(=O)c(=O)n2C , state whether its pIC50 is greater than or equal to 6.
// result not fulfilled

// query Textbook exercise: given the entry Oc1nc2cc(Cl)c(Cl)cc2nc1O [2,3-DIHYDROXY-6,7-DICHLOROQUINOXALINE] , state whether its pIC50 is greater than or equal to 6.
// result not fulfilled

// query Textbook exercise: given the entry CCc1cc(Br)c2c(O)cc(C(=O)O)nc2c1 , state whether its pIC50 is greater than or equal to 6.
// result not fulfilled

// query Textbook exercise: given the entry CCc1cc(Cl)c2c(O)cc(C(=O)O)nc2c1 , state whether its pIC50 is greater than or equal to 6.
// result not fulfilled

// query Textbook exercise: given the entry Cc1cc(C)c2c(O)cc(C(=O)O)nc2c1 , state whether its pIC50 is greater than or equal to 6.
// result fulfilled

// query Textbook exercise: given the entry COc1cc(C(=O)O)nc2cc(Cl)cc(Cl)c12 , state whether its pIC50 is greater than or equal to 6.
// result not fulfilled

// query Textbook exercise: given the entry O=C(O)c1cc(O)c2c(C(F)(F)F)cc(C(F)(F)F)cc2n1 , state whether its pIC50 is greater than or equal to 6.
// result not fulfilled

// query Textbook exercise: given the entry O=C(O)c1cc(O)c2ccc(Cl)cc2n1 , state whether its pIC50 is greater than or equal to 6.
// result fulfilled

// query Textbook exercise: given the entry Cc1ccc2c(O)cc(C(=O)O)nc2c1 , state whether its pIC50 is greater than or equal to 6.
// result not fulfilled

// query Textbook exercise: given the entry CCCc1ccc2c(O)cc(C(=O)O)nc2c1 , state whether its pIC50 is greater than or equal to 6.
// result not fulfilled

// query Textbook exercise: given the entry Cc1cc(I)c2c(O)cc(C(=O)O)nc2c1 , state whether its pIC50 is greater than or equal to 6.
// result fulfilled

// query Textbook exercise: given the entry O=C(O)c1cc(O)c2c(I)cccc2n1 , state whether its pIC50 is greater than or equal to 6.
// result fulfilled

// query Textbook exercise: given the entry CCc1cccc2nc(C(=O)O)cc(O)c12 , state whether its pIC50 is greater than or equal to 6.
// result not fulfilled

// query Textbook exercise: given the entry O=C(O)C(=O)Nc1cc(Cl)cc(Cl)c1 , state whether its pIC50 is greater than or equal to 6.
// result not fulfilled

// query Textbook exercise: given the entry O=C(O)c1cc(O)c2c(Cl)cccc2n1 , state whether its pIC50 is greater than or equal to 6.
// result not fulfilled

###

target: Glutamate NMDA receptor (Rattus norvegicus) (UniProt P35439+Q00959+Q00960+Q00961+Q62645+Q8VHN2+Q9R1M7); assay: Apparent dissociation constant of [3H]glycine from N-methyl-D-aspartate glutamate receptor in rat cortical slice preparation expressed as log values.
READOUT_TYPE: -Log 1/Kb
Number, no unit, nothing else.

Record Cc1cc(I)cc2nc(C(=O)O)cc(O)c12 , field -Log 1/Kb: 5.05

Record O=C(O)c1cc(O)c2c(Cl)cc(I)cc2n1 , field -Log 1/Kb: 5

Record O=C(O)c1cc(O)c2ccc(Br)cc2n1 , field -Log 1/Kb: 5.1
